CONDITION SUMMARY: in n-nonanol, 323.2 K
RESULT TYPE: solubility (mole fraction)

ITEM SMILES | RESULT TYPE | QUANTITATIVE READOUT
C[C@]12CC[C@@H]3c4ccc(O)cc4CC[C@H]3[C@@H]1C[C@@H](O)[C@@H]2O | solubility (mole fraction) | 0.0168
C[C@@H]1CC[C@@]2(OC1)O[C@H]1C[C@H]3[C@@H]4CC=C5C[C@@H](O)CC[C@]5(C)[C@H]4CC[C@]3(C)[C@H]1[C@@H]2C | solubility (mole fraction) | 0.0145

====

CONDITION SUMMARY: in NMP, 328.2 K

ITEM SMILES | solubility (mole fraction)
C[C@]12CC[C@@H]3c4ccc(O)cc4CC[C@H]3[C@@H]1C[C@@H](O)[C@@H]2O | 0.00718
C[C@@H]1CC[C@@]2(OC1)O[C@H]1C[C@H]3[C@@H]4CC=C5C[C@@H](O)CC[C@]5(C)[C@H]4CC[C@]3(C)[C@H]1[C@@H]2C | 0.0219
